Ref: PubChem BioAssay

Experiment: 384-well plate pilot, post-Golgi transport modulator project, inhibition of yeast transport mutant growth (AID 636); further: test concentration not given here
Settings: absorbance 615 nm, about 18 h, stronger effect = higher value
Recorded inhibition by entry
API: value field is a number in %; no unit string.

COC(=O)c1ccc(C2C(C#N)=C(N)Oc3cc(C)n(C)c(=O)c32)cc1 (stereo unspecified)	-0.82
CN1CCc2c(sc3c2c(=O)n(-c2cccc(Cl)c2)c2nncn32)C1	-2.6
Cc1nc2ccc(NC(=O)NCc3ccco3)cc2s1	-4.67
c1ccc2c3nnc4n(c-3nc2c1)CCCS4	-1.32
N#C[C@@H]1[C@@H]2C(=O)N(c3ccc4c(c3)OCCO4)C(=O)[C@@H]2C2c3ccccc3C=CN21 (stereo partly specified)	-0.53

// recorded inhibition for `CCn1c(SCC(=O)c2ccc(Cl)cc2)nnc1-c1ccoc1C` : -2.84

// recorded inhibition for CCCc1ccc(C(C)NC(=O)c2cnccn2)cc1 (stereo unspecified) : -5.26

// recorded inhibition for `CCn1c(SCc2cc(=O)[nH]c3ccccc23)nc2c1c(=O)n(C)c(=O)n2C` : 0.68
